- STUDY SYSTEM: ATP-binding cassette sub-family B member 6 (Homo sapiens)
- TEST METHOD NOTES: blockers of ABCB6-driven porphyrin uptake – K562-ABCB6 cells, flow cytometry, validation set, pilot screen (AID 588550);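 note: 0% = DMSO wells and 100% = benzethonium chloride 70 µM positive control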
- CONDITION: K562-ABCB6 porphyrin accumulation, 1 h, at 10 µM, stronger effect = higher value
QUANTITY: inhibition (%)
Give bare numbers, in %.

Consider the following illustrative entries.
MOLECULE | RESULT NUMBER
CN1[C@@H]2CC[C@H]1CC(OC(=O)C(CO)c1ccccc1)C2 (stereo not given in full) | 7
O=C(NCc1ccc2c(c1)OCO2)c1ccc2c(c1)OCCO2 | 11

For each of the molecules below, note its inhibition.
1. CCN(CCCCCN(C)C)Cc1cc2ccccc2o1
2. Cc1ccc(/C=N/NC(=O)C2(C)CC2(Br)Br)cc1 (stereo not given)

Response line:
10
-2

---

- TEST METHOD NOTES: TOR pathway RTG branch CIT2 reporter changes – S. cerevisiae, GFP fusion, multiplex flow cytometry, primary screen (AID 1870);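 note: barcoded CIT2-GFP strain pooled with four other GFP strains with rapamycin as positive control; median GFP fluorescence per well over plate mean of DMSO wells so 100% = DMSO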
- CONDITION: S. cerevisiae CIT2-GFP expression, 3 h, at 10 µM, stronger effect = higher value
Provide the recorded percent response of DMSO control for the entries that follow.
Numbers only, in %.

Consider the following illustrative entries.
MOLECULE | UNIT LABEL | percent response of DMSO control
COc1ccc(C=O)c(OC)c1 | % | 99
COCCOC(=O)C1=C(C)NC(C)=C(C(=O)OC(C)C)C1c1cccc([N+](=O)[O-])c1 (configuration not stated) | % | 111
O=c1[nH]c(=O)n([C@H]2C[C@H](O)[C@@H](CO)O2)cc1C(F)(F)F | % | 97.8

For each of the molecules below, note its percent response of DMSO control.
1. Cc1ccc(S(=O)(=O)NC(=O)NN2CCCCCC2)cc1
2. CN1CCc2c(n(CC(O)CN(CCO)CCO)c3ccccc23)C1=O (configuration not stated)
3. COc1c2ccoc2nc2c(OC)cccc12
4. Cc1cc(NS(=O)(=O)c2ccc(N)cc2)no1
5. Cc1cc(C(=O)Nc2ccccc2C(=O)N2CCCCC2)ccc1[N+](=O)[O-]
6. Cc1cnc(N)c2c(=O)oc3ccccc3c12
7. CC(C[N+](C)(C)C)OC(N)=O (configuration not stated)
8. Cc1ccc(C2CC(=O)C(C=NCCN3CCN(CC(=O)Nc4cc(C)cc(C)c4)CC3)=C(O)C2)cc1 (configuration not stated)

Response line:
1. 100
2. 97.9
3. 95.8
4. 107
5. 86.7
6. 105
7. 89.9
8. 97.6

Notebook: `Cc1cccc(Nc2ccccc2C(=O)O)c1C` , percent response of DMSO control read as 86.7

---

- TEST METHOD NOTES: Nile Red efflux blockade in pump-expressing yeast – validation compound set, multiplex, phenotypic, pilot screen (AID 588506);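 note: Nile Red retained in cells so higher fluorescence means more efflux inhibition; 0 = negative control wells and 1 = enniatin B 25 µM full block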
- CONDITION: S. cerevisiae pump-expressing triplex, Nile Red efflux flow cytometry; at 10 µM; the pumps come from Candida albicans
Calls of active or inactive are those of the source.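 How the source made its calls: active means efflux inhibition above 0.42, the validation set average plus 4 SD; inconclusive means no clear call, values can overlap the other calls; inactive means the rest.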
Please answer using one outcome listed in 1 (yes) for active, 0 (no) for inactive

Example entries and their recorded answers appear below.
COMPOUND | ASSIGNED CATEGORY
Cn1cc(CN2CCN(CCO)CC2)c(-c2ccc(Oc3ccccc3)cc2)n1 | 0 (no)
O=C(O)C(O)c1ccccc1 (configuration not stated) | 0 (no)
c1ccc(Nc2ccccn2)nc1 | 0 (no)
COC(=O)c1cc(Br)c(=O)n(CCc2ccc(O)cc2)c1 | 0 (no)
COc1ccc(C2NC(C(=O)O)Cc3c2[nH]c2ccccc32)cc1CN1CCN(c2ccc(F)cc2)CC1 (configuration not stated) | 0 (no)
O=C(O)c1cc2cc(F)ccc2[nH]1 | 0 (no)
O=C(O)CCCCCCNC(=O)c1cncc(O)c1 | 0 (no)
CCOc1ccc(N2C(=O)CC(NCCNc3ccc([N+](=O)[O-])cn3)C2=O)cc1 (configuration not stated) | 0 (no)

Prompt line: Which outcome was assigned to O=C1C2CC=C(Cl)CC2C(=O)N1CCc1c[nH]c2ccccc12 (configuration not stated) in this test?
Response line: 0 (no)

Prompt line: Which outcome was assigned to CC(C)=CC/C=C1\CCC(C(=O)O)C(C(=O)O)C1 (configuration not stated) in this test?
Response line: 0 (no)

Prompt line: Which outcome was assigned to `Brc1c(NC2=NCCN2)ccc2nccnc12` in this test?
Response line: 0 (no)

Prompt line: Which outcome was assigned to COc1ccc(CN2CCCC(C(=O)c3ccc(Cl)cc3)C2)cc1Cn1cccn1 (configuration not stated) in this test?
Response line: 0 (no)

Prompt line: Which outcome was assigned to `C=C(C)C(=O)Nc1ccc(NC(C)C)cc1` in this test?
Response line: 0 (no)

Prompt line: Which outcome was assigned to CSCCC(NC(C)=O)C(=O)Oc1ccc2c3c(c(=O)oc2c1)CCCC3 (configuration not stated) in this test?
Response line: 0 (no)
